Value source: the kinase profiling compilation of Christmann-Franck et al. (2016)

target: MELK (human) (UniProt Q14680); assay: radiometric filter-binding kinase assay, Kinase HotSpot; conditions: compound 0.5 µM; ATP 10 µM
Sequence (Q14680 whole entry, looked up): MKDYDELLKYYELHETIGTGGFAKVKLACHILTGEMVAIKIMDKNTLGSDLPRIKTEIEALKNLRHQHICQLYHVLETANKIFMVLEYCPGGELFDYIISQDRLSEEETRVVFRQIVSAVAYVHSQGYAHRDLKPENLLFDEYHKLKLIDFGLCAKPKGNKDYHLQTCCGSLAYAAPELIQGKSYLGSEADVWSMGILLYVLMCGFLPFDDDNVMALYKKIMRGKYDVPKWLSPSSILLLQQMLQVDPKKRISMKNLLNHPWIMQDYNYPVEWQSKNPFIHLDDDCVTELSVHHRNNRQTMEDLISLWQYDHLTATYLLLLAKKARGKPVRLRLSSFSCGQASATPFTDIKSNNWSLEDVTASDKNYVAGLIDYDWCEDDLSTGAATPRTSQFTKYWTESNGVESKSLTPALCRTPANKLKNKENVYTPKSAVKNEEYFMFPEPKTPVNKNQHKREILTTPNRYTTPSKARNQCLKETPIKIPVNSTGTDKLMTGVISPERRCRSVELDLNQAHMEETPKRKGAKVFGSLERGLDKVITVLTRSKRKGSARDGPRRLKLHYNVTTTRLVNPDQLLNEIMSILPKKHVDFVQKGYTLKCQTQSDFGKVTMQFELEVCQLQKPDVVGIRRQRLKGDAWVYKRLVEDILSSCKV
Assignment: determine reported residual activity for the given molecules.
One number for each entry, in %.

Please review the entries below; each comes with its answer.
sample.smiles | readout | val
O=C(Nc1cccc(Nc2nccc(Nc3cccc(C(F)(F)F)c3)n2)c1)C1CC1 | residual activity | 101
Cc1ccc(Nc2nccc(N(C)c3ccc4c(C)n(C)nc4c3)n2)cc1S(N)(=O)=O | residual activity | 87.5
Nc1ncnc2c1c(-c1ccc(Oc3ccccc3)cc1)cn2C1CCCC1 | residual activity | 101

Would you mind listing residual activity for each of the following molecules?
1. Nc1ncnc2[nH]nc(Nc3ccc(F)cc3)c12
2. CC[n+]1c(/C=C/N(C)c2ccccc2)n(-c2ccccc2)c2ccc(-c3nc4ccccc4s3)cc21
3. Nc1cccc(-c2cc3c(Oc4cccc(O)c4)ncnc3[nH]2)c1
4. O=C1NC(=O)c2c1c1c3ccccc3n3c1c1c2c2ccccc2n1C1CCC3O1
5. O=C1NC(=O)C(c2cn(CCCn3ccnc3)c3ccccc23)=C1Nc1ccccc1
6. O=S(=O)(c1cccc2cnccc12)N1CCCNCC1

1. 97.7
2. 93.4
3. 93.4
4. 7.13
5. 101
6. 78.6

Would you mind listing residual activity for each of the following molecules?
1. CC#CC(=O)Nc1cc2c(Nc3ccc(F)c(Cl)c3)ncnc2cn1
2. CNC(=O)c1cc(Oc2ccc(NC(=O)Nc3ccc(Cl)c(C(F)(F)F)c3)cc2)ccn1

101
93.6

Would you mind listing residual activity for each of the following molecules?
1. COc1ccc(COc2ccc(Cc3cnc(N)nc3N)cc2OC)cc1
2. c1ccc(-c2n[nH]c3c2oc2ccccc23)cc1
3. Oc1cccc(-c2nc(N3CCOCC3)c3oc4ncccc4c3n2)c1
4. CCN(CC)C(=O)c1ccc(Nc2nc(OCC3CCCCC3)c3nc[nH]c3n2)cc1

1. 102
2. 77
3. 75.5
4. 76.3

====

target: UniProt O75716; assay: radiometric filter-binding kinase assay, Kinase HotSpot; conditions: compound 0.5 µM; ATP 10 µM
Sequence (O75716 whole entry, looked up): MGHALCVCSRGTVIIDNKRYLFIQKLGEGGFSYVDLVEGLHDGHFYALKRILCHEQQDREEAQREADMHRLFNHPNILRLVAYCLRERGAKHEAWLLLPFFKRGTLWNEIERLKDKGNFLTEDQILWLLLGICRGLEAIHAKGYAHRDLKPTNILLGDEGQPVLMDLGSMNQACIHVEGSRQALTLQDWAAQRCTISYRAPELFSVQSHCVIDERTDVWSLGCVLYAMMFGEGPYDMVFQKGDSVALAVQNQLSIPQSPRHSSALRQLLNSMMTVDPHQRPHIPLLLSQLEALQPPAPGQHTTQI
readout: residual activity (%)
Give bare numbers, in %.

sample.smiles | measure.unit | residual activity
COc1ccc2c(c[n+](C)c3c4cc5c(cc4ccc23)OCO5)c1OC | % | 102

Would you mind listing residual activity for each of the following compounds?
1. O=S(=O)(c1cccc2cnccc12)N1CCCNCC1
2. Cc1[nH]c(/C=C2\C(=O)Nc3ccc(S(=O)(=O)N(C)c4cccc(Cl)c4)cc32)c(C)c1C(=O)N1CCN(C)CC1
3. COc1cc2ncnc(Nc3cccc(Cl)c3)c2cc1OC
4. CCN(CC)C(=O)c1ccc(Nc2nc(OCC3CCCCC3)c3nc[nH]c3n2)cc1

1. 91.7
2. 95.4
3. 101
4. 33.6

====

biological target: MINK1 (human) (UniProt Q8N4C8); assay: radiometric filter-binding kinase assay, Kinase HotSpot; conditions: compound 0.5 µM; ATP 10 µM
Sequence (Q8N4C8 whole entry, looked up): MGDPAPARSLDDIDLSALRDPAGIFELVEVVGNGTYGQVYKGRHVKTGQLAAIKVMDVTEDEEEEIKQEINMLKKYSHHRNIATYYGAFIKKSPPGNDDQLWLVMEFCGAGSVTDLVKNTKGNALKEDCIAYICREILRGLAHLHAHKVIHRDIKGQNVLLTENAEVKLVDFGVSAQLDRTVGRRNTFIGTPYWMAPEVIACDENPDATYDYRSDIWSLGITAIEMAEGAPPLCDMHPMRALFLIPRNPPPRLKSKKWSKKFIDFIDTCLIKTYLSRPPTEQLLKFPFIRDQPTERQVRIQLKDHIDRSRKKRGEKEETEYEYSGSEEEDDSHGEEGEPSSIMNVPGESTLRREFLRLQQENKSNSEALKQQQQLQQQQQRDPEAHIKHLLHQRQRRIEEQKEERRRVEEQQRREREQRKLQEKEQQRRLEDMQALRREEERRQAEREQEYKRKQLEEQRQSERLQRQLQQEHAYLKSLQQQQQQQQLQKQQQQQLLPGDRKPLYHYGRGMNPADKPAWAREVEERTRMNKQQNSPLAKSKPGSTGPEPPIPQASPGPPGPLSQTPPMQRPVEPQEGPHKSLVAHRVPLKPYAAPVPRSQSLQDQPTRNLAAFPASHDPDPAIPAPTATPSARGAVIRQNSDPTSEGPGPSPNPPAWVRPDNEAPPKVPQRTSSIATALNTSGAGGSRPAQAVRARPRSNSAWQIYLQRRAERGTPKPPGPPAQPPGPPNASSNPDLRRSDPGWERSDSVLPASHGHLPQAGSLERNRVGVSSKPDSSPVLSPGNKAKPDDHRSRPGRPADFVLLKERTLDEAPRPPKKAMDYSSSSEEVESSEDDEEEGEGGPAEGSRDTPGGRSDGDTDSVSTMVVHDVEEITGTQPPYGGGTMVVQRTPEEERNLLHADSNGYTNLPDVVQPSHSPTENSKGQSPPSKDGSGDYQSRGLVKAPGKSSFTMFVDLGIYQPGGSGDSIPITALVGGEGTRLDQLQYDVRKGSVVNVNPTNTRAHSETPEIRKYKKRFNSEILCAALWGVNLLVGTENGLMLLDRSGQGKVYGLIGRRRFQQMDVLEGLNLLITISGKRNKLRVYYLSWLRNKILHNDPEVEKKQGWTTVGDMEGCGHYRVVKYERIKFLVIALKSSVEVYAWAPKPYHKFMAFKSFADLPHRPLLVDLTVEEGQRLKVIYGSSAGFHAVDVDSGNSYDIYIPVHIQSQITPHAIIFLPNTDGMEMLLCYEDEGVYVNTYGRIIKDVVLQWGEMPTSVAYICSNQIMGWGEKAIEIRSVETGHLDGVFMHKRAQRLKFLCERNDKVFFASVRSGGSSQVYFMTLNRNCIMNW
readout: residual activity (%)
One number for each entry, in %.

Please review the entries below; each comes with its answer.
molecule | experimental.target | readout | val
CCN(CC)CCNC(=O)c1c(C)[nH]c(/C=C2\C(=O)Nc3ccc(F)cc32)c1C | MINK1 (human) (UniProt Q8N4C8) | residual activity | 10.5
Nc1ncnc2[nH]nc(Nc3ccc(F)cc3)c12 | MINK1 (human) (UniProt Q8N4C8) | residual activity | 88.9
Nc1ncnc2c1c(-c1ccc(Oc3ccccc3)cc1)cn2C1CCCC1 | MINK1 (human) (UniProt Q8N4C8) | residual activity | 105

Would you mind listing residual activity for each of the following molecules?
1. CCC(=O)Nc1ccc2ncnc(Nc3cccc(Br)c3)c2c1
2. CC(=O)c1ccc(N2CCOCC2)cc1O
3. c1ccc(-c2n[nH]c3c2oc2ccccc23)cc1

[95.8, 94.3, 81.4]

Would you mind listing residual activity for each of the following molecules?
1. CO[C@H]1CC2CC[C@@H](C)[C@@](O)(O2)C(=O)C(=O)N2CCCC[C@H]2C(=O)OC([C@H](C)C[C@@H]2CC[C@@H](O)[C@H](OC)C2)CC(=O)[C@H](C)/C=C(\C)[C@@H](O)[C@@H](OC)C(=O)[C@H](C)C[C@H](C)/C=C/C=C/C=C/1C (stereo partly drawn)
2. O=C1NC(=O)C(c2cn(CCCn3ccnc3)c3ccccc23)=C1Nc1ccccc1

100
90.1
